# STUDY TARGET: recombinant mouse GALK1 (Mus musculus, UniProt Q9R0N0)
# Sequence (Q9R0N0 whole entry): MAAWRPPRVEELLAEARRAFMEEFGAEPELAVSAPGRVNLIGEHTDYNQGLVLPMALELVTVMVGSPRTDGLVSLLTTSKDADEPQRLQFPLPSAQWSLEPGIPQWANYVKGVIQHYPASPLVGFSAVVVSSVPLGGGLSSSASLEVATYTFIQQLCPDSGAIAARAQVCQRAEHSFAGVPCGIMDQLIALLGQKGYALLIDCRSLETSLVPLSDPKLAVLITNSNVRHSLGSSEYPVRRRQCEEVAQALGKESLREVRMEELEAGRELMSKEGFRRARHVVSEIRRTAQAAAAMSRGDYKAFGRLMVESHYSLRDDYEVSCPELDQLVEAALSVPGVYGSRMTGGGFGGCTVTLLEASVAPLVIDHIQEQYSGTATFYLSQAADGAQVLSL
# ASSAY OVERVIEW: mGALK1 biochemical activity assay (Kinase-Glo Plus, ATP depletion)
# CONDITION PARAMETERS: recombinant mouse GALK1, Kinase-Glo Plus ATP depletion; read-out: mGALK
pIC50: −log10 of the molar value.
PARAMETER: pIC50

CC1=C(C(=O)Nc2ccc(C(=O)N3CCOCC3)cc2)C(c2ccccc2Cl)N=C(Nc2nc3ccccc3o2)N1 (stereo not drawn)
4.66

(1) CC1=C(C(=O)Nc2cc(C(=O)O)ccn2)C(c2cccc(S(N)(=O)=O)c2)N=C(Nc2nc3ccc(F)cc3o2)N1 (stereo not drawn)
(2) COC(=O)c1ccc(NC(=O)C2=C(C)NC(Nc3nc4ccccc4o3)=NC2c2ccccc2Cl)cn1 (stereo not drawn)
(3) CC1=C(C(=O)NCc2cnn(C)c2)C(c2ccccc2Cl)N=C(Nc2nc3ccccc3o2)N1 (stereo not drawn)
(4) CC1=C(C(=O)Nc2cc(C(=O)O)ccn2)[C@H](c2ccc(C)cc2Cl)N=C(Nc2nc3ccc(F)cc3o2)N1
(5) CC1=C(C(=O)NCc2cnn(C)c2C)C(c2ccc(C)cc2Cl)N=C(Nc2nc3ccc(F)cc3o2)N1 (stereo not drawn)
Highest pIC50 first, then in falling order down to the smallest. Answer by listing the labels in the order asked for. 4, 5, 2, 3, 1
